Reference source: the supplement of paper PMC10567573

Would you kindly list protein stability index for each of these variants?
B1: SPSB4 (parent)
chain: LDMDEGTLSFIVDGQYLGVAFRGL

variants of: B1; experiment: protein stability index of a GFP-peptide fusion (GPS, HEK-293T) (PSI 1-6); higher = more stable; settings: c terminus: a fixed tail appended;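 further: lentivirally expressed fusions sorted by FACS into six bins by GFP to DsRed ratio, PSI derived from sequencing read proportions per bin multiplied by bin number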
Lab note: jot the number down without any unit.

Ask: May I ask what protein stability index has been recorded for LDMDEGTLSFIVDGQYLGQAFRGL [V19Q] ?
Reply: 1.94

Ask: Given the variant LDMDEGTLSFQVDGQYLGVAFRGL [I11Q] , what is its reported protein stability index?
Reply: 2.31

Ask: Fill in: protein stability index of LDMCEGTLSFIVDGQYLGVAFRGL [D4C] is ___
Reply: 1.66

Ask: Entry LDMDEGTLSEIVDGQYLGVAFRGL [F10E] has what protein stability index?
Reply: 3.13

Ask: Which protein stability index value belongs to LDMDEGELSFIVDGQYLGVAFRGL [T7E] ?
Reply: 1.31

Ask: Look up protein stability index for this variant: LDMDEMTLSFIVDGQYLGVAFRGL [G6M]
Reply: 2.66

Ask: What value of protein stability index has been recorded for this entry: LDMDEGTLSFIVDGQYLGVAFRGE [L24E]
Reply: 1.48

Ask: Using the record for LDMDEGTLSFIVDGQYLGKAFRGL [V19K] , report its protein stability index.
Reply: 2.1

Ask: Find the recorded protein stability index belonging to LDMDEGTLAFIVDGQYLGVAFRGL [S9A] and report it.
Reply: 3.98

Ask: Give its protein stability index value. Item: LDMDEGTLSFIVDGQYLRVAFRGL [G18R]
Reply: 2.38

Ask: Given LDMDEGTLSFIVDGQYLGVAFCGL [R22C] , state its recorded protein stability index.
Reply: 2.55

Ask: # query: protein stability index of entry LDMDEGTLSFIVDGQYLGHAFRGL [V19H]
Reply: 2.07

Ask: Bench note: what protein stability index did GDMDEGTLSFIVDGQYLGVAFRGL [L1G] show?
Reply: 1.65

Ask: # get_value(readout='protein stability index', item= LDMDEGTLSFIVDGQYLVVAFRGL [G18V] )
Reply: 2.45

Ask: Look up protein stability index for this variant: LDMDEGTLSFIVDVQYLGVAFRGL [G14V]
Reply: 1.95

Ask: Fill in: protein stability index of LDMDEGTLSFIVDGQYLGVAFRGM [L24M] is ___
Reply: 1.84

Ask: What measured protein stability index goes with LDMDEGTLSFIVDMQYLGVAFRGL [G14M] ?
Reply: 2.88

Ask: Using the record for LDMHEGTLSFIVDGQYLGVAFRGL [D4H] , report its protein stability index.
Reply: 3.59

Ask: What does the data say about its protein stability index? Entry: LVMDEGTLSFIVDGQYLGVAFRGL [D2V]
Reply: 2.35

Ask: Given the variant LDMDEGTLSFIVTGQYLGVAFRGL [D13T] , what is its reported protein stability index?
Reply: 3.32

Ask: Field request: protein stability index | item: LDMDEGTLSFIVDGQYLSVAFRGL [G18S]
Reply: 2.8

Ask: // returns reported protein stability index for input LDMDEGTLSFIVDPQYLGVAFRGL [G14P]
Reply: 3.54

Ask: So what does the record say about protein stability index for LDMQEGTLSFIVDGQYLGVAFRGL [D4Q] ?
Reply: 2.4

Ask: Query (variant): LDMDEGTLSFIVDGQYLGVASRGL [F21S] ; field requested: protein stability index
Reply: 2.18

Ask: Given LDKDEGTLSFIVDGQYLGVAFRGL [M3K] , state its recorded protein stability index.
Reply: 2.9

Ask: Recorded protein stability index for LDMDEGTLSFIVDGQWLGVAFRGL [Y16W] , please?
Reply: 1.9

Ask: Which protein stability index value is on record for LDMDEGTLSFCVDGQYLGVAFRGL [I11C] ?
Reply: 3.29

Ask: Which protein stability index is reported for this variant? PDMDEGTLSFIVDGQYLGVAFRGL [L1P]
Reply: 1.96

Ask: Give its protein stability index value. Item: LDMDEGTFSFIVDGQYLGVAFRGL [L8F]
Reply: 2.3

Ask: For the variant shown here, LDMDEGTLSFIVDGQYMGVAFRGL [L17M] , give the reported protein stability index.
Reply: 1.67

Ask: Field request: protein stability index | item: LDMDEGTLSFIVDGQYLGVAFRGW [L24W]
Reply: 2.54

Ask: Request the reported protein stability index associated with LHMDEGTLSFIVDGQYLGVAFRGL [D2H]
Reply: 2.12

Ask: Query: protein stability index; subject: LDMDEGTISFIVDGQYLGVAFRGL [L8I]
Reply: 2.43

Ask: Quick check: protein stability index of LDMDEGTLSFIVDGQYIGVAFRGL [L17I] ?
Reply: 3.23

Ask: Find the recorded protein stability index belonging to LDMDEGTLSFIVDGQYLGVSFRGL [A20S] and report it.
Reply: 2

Ask: Fill in: protein stability index of LDMDEGTLSFIVDGQYLGAAFRGL [V19A] is ___
Reply: 1.97

Ask: So what's the measured protein stability index for this one? LRMDEGTLSFIVDGQYLGVAFRGL [D2R]
Reply: 2.74

Ask: Returns the measured protein stability index for the input variant. Input: LDMDEGTLSFIVDRQYLGVAFRGL [G14R]
Reply: 2.65

Ask: Requested field: protein stability index. Item: LDMDEGTLSFIVDGQYRGVAFRGL [L17R]
Reply: 2.03

Ask: # query: protein stability index of entry LDMDEGTLSFIVDGIYLGVAFRGL [Q15I]
Reply: 2.02

Ask: Fill in: protein stability index of LDMDEGTLSFIVDGQYLGVAFGGL [R22G] is ___
Reply: 2.69

Ask: Need protein stability index of LDMDEGTLSFIVDSQYLGVAFRGL [G14S] , thanks.
Reply: 2.17

Ask: Which measured protein stability index value corresponds to LDMDEGTLSFIVDGQYLGVAFRML [G23M] ?
Reply: 2.84

Ask: Which protein stability index value belongs to LDMDEGTDSFIVDGQYLGVAFRGL [L8D] ?
Reply: 2.21

Ask: Item LDMDEITLSFIVDGQYLGVAFRGL [G6I] has what recorded protein stability index?
Reply: 2.38

Ask: Look up protein stability index: LDMDEGTLSFIVDGQYLGVKFRGL [A20K]
Reply: 2.11
